Test system: Platelet Agglutination
assay_procedure: In vitro inhibition of platelet agglutination (rabbit platelet rich plasma, aggregometer) induced by arachidonic acid, collagen or ADP
Type: cell-based
protocol_conditions: Oryctolagus cuniculus, pH 7.4, collagen, final 20 μg/ml, rabbit PRP, Tris buffer, pH7.4, read-out: Inhibition Activity against Platelet Agglutination [50% Inhibition Concentration (μM)], Collagen
reported_endpoint: IC50
# output: numeric value plus its unit

Entry CCCCC[C@H](O)/C=C/[C@H]1[C@H](O)CC(=O)[C@@H]1CCCCCCC(=O)O [PGE1, prostaglandin E1, reference compound] : reported IC50 = ?
0.052 µM

====

Tested on: Platelet Agglutination
assay_procedure: In vitro inhibition of platelet agglutination (rabbit platelet rich plasma, aggregometer) induced by arachidonic acid, collagen or ADP
Format: cell-based
protocol_conditions: Oryctolagus cuniculus, pH 8, arachidonic acid, final 500 μM, rabbit PRP, Tris buffer, pH8.0, read-out: Inhibition Activity against Platelet Agglutination [50% Inhibition Concentration (μM)], Arachidonic acid
reported_endpoint: IC50

Entry CCCCC[C@H](O)/C=C/[C@@H]1[C@H]2C/C(=C/CCCC(=O)O)O[C@H]2C[C@H]1O : reported IC50 = ?
0.054 µM
